For each of the binders below, state its kon.
- tgt: T1, S15-extra cellular domain (ECD) monomer (human, UniProt Q6ZMC9 20-263)
- T1 construct: also called S15 monomer protein
- T1 sequence: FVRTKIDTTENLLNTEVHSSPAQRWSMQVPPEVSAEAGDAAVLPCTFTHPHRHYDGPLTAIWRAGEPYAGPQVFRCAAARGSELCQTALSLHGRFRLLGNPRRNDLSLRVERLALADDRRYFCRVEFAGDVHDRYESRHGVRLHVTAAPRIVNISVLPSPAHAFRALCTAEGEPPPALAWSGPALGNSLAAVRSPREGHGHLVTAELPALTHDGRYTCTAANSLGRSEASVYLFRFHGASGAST
- method: BLI (Octet RED96), mAb on anti-human Fc sensors, S15-ECD monomer in solution, global fit
One number for each entry, in M⁻¹ s⁻¹.

binder	kon, M⁻¹ s⁻¹
92A (antibody, V domains shown, Mouse anti-human Siglec-15 mAb; also called NC92) VH: DVQLQESGPGLVKFSQSLSLTCSVTGYSITSGYYWNWIRQFPGNKLEWMGYIRHDGSNNYNPSLKNRISITRDTSKNQFFLKLNSVITEDTATYYCVREIYDGSSGYFDVWGTGTTVTVSS VL: QIVLTQSPAIMSASLGEEITLICSASSSVSYMHWYQQKSGTSPKLLIYRTSNLASGVPSRFSGSGSGTFYSLTISSVEAEDAADYYCHQWSSWTFGGGTQLEIK	99000
93B (antibody, V domains shown, Mouse anti-human Siglec-15 mAb; also called NC93) VH: QVQLKQSGAELVRPGASVKLSCKASGYTFTDYYINWVKQRPGQGLEWIARIYPGNGNTDYNEKFKDKATLTAEKSSTTAYIQLSSLTSEDSAVYFCCLWYFDVWGTGTTVTVSS VL: DIVMTQSPSSLTVTAGEKVTMSCKSSQSLLNSGNQKNYLTWYQQKPGQPPKLLIYWASTRESGVPDRFTGSGSGTDFTLTISNVQPEDLAVYYCQNDYSFPFTFGSGTELEMK	185000

Next item in the queue.
query: So what does the record say about kon for 1B2 (antibody, V domains shown, Mouse anti-human Siglec-15 mAb) VH: EVQLVESGGGFVKPGGSLKLSCAASGFTFSDYGMHWVRQAPEKGLEWVAYISSGSSIIYYADTVKGRFTISRDNAKNTLFLQMTSLRSEDTAMYYCARDHYHGNGSDYWGQGTTLTVSS VL: DVLMTQTPLSLPVSLGDQASISCRSSQSIVHSNGNTYLEWYLQKPGQSPKLLIYKVSNRFSGVPDRFSGSGSGTDFTLKISRVEAEDLGVYYCFQGSHVPWTFGGGTKLEIK ?
result: 143000
